Each item that follows carries a reported MIC S. pneumo. 1175.
- Tested on: Streptococcus pneumoniae 1175
- Type: cell-based
- experimentalParameters: Streptococcus pneumoniae 1175; microtiter broth dilution
// return numeric value only (unit: µg/mL, not printed)

Sample answers from the record:
CCC1OC(=O)C(C)C(=O)C(C)C(OC2OC(C)CC(N(C)C)C2O)C(C)(OC)CC(C)C(=O)C(C)C2N(CC3CN(C(c4ccccc4)c4ccccc4)C3)C(=O)OC12C (centres unmarked) | 0.39
CCC1OC(=O)C(C)C(=O)C(C)C(OC2OC(C)CC(N(C)C)C2O)C(C)(OC)CC(C)C(=O)C(C)C2N(C3CN(Cc4ccc(-n5cccn5)nc4)C3)C(=O)OC12C (centres unmarked) | 0.5

Provide MIC S. pneumo. 1175 value for the following compound: CCC1OC(=O)C(C)C(=O)C(C)C(OC2OC(C)CC(N(C)C)C2O)C(C)(OC)CC(C)C(=O)C(C)C2N(C3CN(Cc4cc(=O)[nH]c5ccc(Cl)cc45)C3)C(=O)OC12C (centres unmarked)
0.12

Give me measured MIC S. pneumo. 1175, please, for this compound: CCC1OC(=O)C(C)C(=O)C(C)C(OC2OC(C)CC(N(C)C)C2O)C(C)(OC)CC(C)C(=O)C(C)C2N(C3CN(C(=O)Nc4cc(-c5cncc(C)c5)n[nH]4)C3)C(=O)OC12C (centres unmarked)
16

====

- Tested on: Haemophilus influenzae 1218
- experimentDescription: MIC, microtiter broth dilution (NCCLS M100-S14), H. influenzae 1218 (susceptible)
- Type: cell-based
- experimentalParameters: Haemophilus influenzae 1218
The reader will find reported MIC H. influenzae 1218 values listed item by item below.
Report the value in µg/mL with no unit label.

Examples with answers:
CCC1OC(=O)C(C)C(=O)C(C)C(OC2OC(C)CC(N(C)C)C2O)C(C)(OC)CC(C)C(=O)C(C)C2N(C3CN(Cc4c(C)cnc5ncccc45)C3)C(=O)OC12C (stereo not shown) | 1
CCC1OC(=O)C(C)C(=O)C(C)C(OC2OC(C)CC(N(C)C)C2O)C(C)(OC)CC(C)C(=O)C(C)C2N(C3CN(Cc4ccnc5cccnc45)C3)C(=O)OC12C (stereo not shown) | 0.38
CCC1OC(=O)C(C)C(=O)C(C)C(OC2OC(C)CC(N(C)C)C2O)C(C)(OC)CC(C)C(=O)C(C)C2N(C3CN(S(=O)(=O)c4ccc5nn[nH]c5c4)C3)C(=O)OC12C (stereo not shown) | 1
CCOc1cnc2ncccc2c1CN1CC(N2C(=O)OC3(C)C(CC)OC(=O)C(C)C(=O)C(C)C(OC4OC(C)CC(N(C)C)C4O)C(C)(OC)CC(C)C(=O)C(C)C23)C1 (stereo not shown) | 1
CCC1OC(=O)C(C)C(=O)C(C)C(OC2OC(C)CC(N(C)C)C2O)C(C)(OC)CC(C)C(=O)C(C)C2N(CC3CN(Cc4cccc5nccnc45)C3)C(=O)OC12C (stereo not shown) | 0.25

Write MIC H. influenzae 1218 of CCC1OC(=O)C(C)C(=O)C(C)C(OC2OC(C)CC(N(C)C)C2O)C(C)(OC)CC(C)C(=O)C(C)C2N(C3CN(Cc4ccc(-n5ccnc5)cc4)C3)C(=O)OC12C (stereo not shown) ; system used: Haemophilus influenzae 1218
1

GET MIC H. influenzae 1218 | system: Haemophilus influenzae 1218 | item: CCC1OC(=O)C(C)C(=O)C(C)C(OC2OC(C)CC(N(C)C)C2O)C(C)(OC)CC(C)C(=O)C(C)C2N(C3CN(S(=O)(=O)c4cccc(-n5cccn5)c4)C3)C(=O)OC12C (stereo not shown)
1

Send back Haemophilus influenzae 1218 MIC H. influenzae 1218 of CCC1OC(=O)C(C)C(=O)C(C)C(OC2OC(C)CC(N(C)C)C2O)C(C)(OC)CC(C)C(=O)C(C)C2N(CC3CN(Cc4ccc5cnccn45)C3)C(=O)OC12C (stereo not shown) only.
0.5

Quote Haemophilus influenzae 1218 MIC H. influenzae 1218 for entry `CC[C@H]1OC(=O)[C@H](C)C(=O)[C@H](C)[C@@H](O[C@@H]2O[C@H](C)C[C@H](N(C)C)[C@H]2O)[C@](C)(OC)C[C@@H](C)C(=O)[C@H](C)[C@H]2N(CC3(C)CN(Cc4cccc5ncccc45)C3)C(=O)O[C@]12C` .
2
